- measurementTarget: LOX (Mus musculus)
- Construct: Full length LOX cDNA was then PCR cloned into pEGFP-N1 (Clonetech), or biosensor vector proGFP2-N1; expressed in transfected cells; host or cells: MDCK cells grown as cysts on Matrigel, G418-selected
- Sequence (P28301 163-411): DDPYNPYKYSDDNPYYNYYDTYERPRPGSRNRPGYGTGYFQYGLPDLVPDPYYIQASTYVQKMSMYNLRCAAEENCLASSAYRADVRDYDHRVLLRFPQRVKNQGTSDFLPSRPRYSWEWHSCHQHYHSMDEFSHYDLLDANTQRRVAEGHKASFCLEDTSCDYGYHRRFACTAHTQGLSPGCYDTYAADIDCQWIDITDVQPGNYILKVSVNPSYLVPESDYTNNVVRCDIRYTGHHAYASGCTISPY
- methodNotes: LOX activity in cysts assay (LOX-roGFP2 biosensor, MDCK cysts)
- Assay type: cell-based
- experimentalConditions: 10 uM; MDCK cysts; inhibitor added 30 min prior to imaging; DMSO = 0%, BAPN 1 mM = 100% inhibition; read-out: LOX biosensor inhibition (cyst) @ 10 uM
Documented inhibition at 10 µM across a set of compounds
Numbers only; they are read as %.

Check out these entries, answers already filled in.
// map `CC1(C)C[C@@H]2CN(C(=O)NCCO)C[C@H]1N(c1ccc(Br)cc1)C2` to recorded inhibition at 10 µM (system: LOX (Mus musculus))
84.1

Identify the measured inhibition at 10 µM of `CCOc1ccc(N2C[C@H]3CN(C(=O)N4CC[C@H](O)C4)C[C@@H]2C(C)(C)C3)cc1` for LOX (Mus musculus).
84

Provide the documented inhibition at 10 µM with LOX (Mus musculus) as the system for `CCOc1ccc(N2C[C@@H]3CN(C(=O)NCCO)C[C@H]2C(C)(C)C3)cc1`
94

GET /values?readout=inhibition at 10 µM&system=LOX (Mus musculus)&item= `CC1(C)C[C@@H]2CN(C(=O)N3CCS(=O)(=O)CC3)C[C@H]1N(c1ccc3c(c1)OCCO3)C2`
100

Reported inhibition at 10 µM for LOX (Mus musculus), given `CCCCc1ccc(N2C[C@H]3CN(C(=O)NCCO)C[C@@H]2C(C)(C)C3)cc1` ?
69.3

Further cases:
What is its inhibition at 10 µM for LOX (Mus musculus)? Entry: `CC1(C)C[C@@H]2CN(C(=O)NC3CCS(=O)(=O)CC3)C[C@H]1N(c1ccc(N3CCS(=O)(=O)CC3)cc1)C2`
100

Entry `CC1(C)C[C@@H]2CN(C(=O)NCCO)C[C@H]1N(c1ccc(N3CCS(=O)(=O)CC3)cc1)C2` , system LOX (Mus musculus): what inhibition at 10 µM was measured?
62

The origin of these recorded values is patent US12060360B2.
